Value source: PubChem BioAssay AID1239

measurement_notes: activators of NF-kB expression in neurons, primary screen, cell-based, HTS (AID 1239)
measurement_parameters: human neuronal cells, NF-kB reporter expression; at 12.5 µM; hits give high values
In all, about 190,000 compounds went through this assay and about 3,100 (1.6%) were called active. Shown is part of a subset that was picked to be rich in actives.
attribute_measured: fold change

NC(=O)c1ccc(NC(=O)COC(=O)C(Cc2ccccc2)NC(=O)c2ccccc2)cc1 (stereo unspecified)
0.99
O=C(O)Cc1sc(-c2ccccc2)nc1-c1cccs1
1.28
Cc1c(NC(=O)CSc2nnnn2-c2ccc(C(=O)O)cc2)c(=O)n(-c2ccccc2)n1C
1.04
O=C(CSc1nnc2ccccn12)c1ccccc1
1.88
NC(=O)Cc1ccc2sc(-c3ccccc3)nc2c1
6.92
COc1ccc(-c2nc(-c3ccccc3)no2)c(OC)c1
1.5
COc1ccc(-c2noc(CSc3ccc(C)cc3)n2)cc1
1.04
COc1ccc(-c2noc(-c3ccc(C)cc3)n2)cc1
5.86
Cc1ccccc1OCCC(=O)Nc1c(C)n(C)n(-c2ccccc2)c1=O
0.99
Cc1ccc(Cc2nc(-c3cccc(C)c3)no2)cc1
1.99
CC(=O)Nc1cccc(-c2csc(Nc3cccc(C)n3)n2)c1
8.2

* * *

measurement_notes: activators of NF-kB expression in neurons, primary screen, cell-based, HTS (AID 1239)
measurement_parameters: human neuronal cells, NF-kB reporter expression; at 12.5 µM
The whole screen tested about 190,000 compounds, of which about 3,100 (1.6%) were called active. Cut-off read from the data, not from the text of the source: active = fold change above about 3.3; inconclusive = no clear call, values can overlap the other calls; inactive = below that. This is one part of a sample in which actives are shown more often than they occur.
Outcomes: active, inactive

O=C1CCCC2=C1C(c1cccs1)CC(=O)N2c1ccc(F)cc1 (centres undefined)
inactive
C/C(CC(=O)Nc1cccc(C(F)(F)F)c1)=N\NC(=O)C(=O)NCC(C)C
inactive
Cc1ccccc1N1C(=O)C(Oc2ccc(Cl)cc2)C1CNCC1CCCO1 (centres undefined)
inactive
CCCCCc1ccc(-c2ccc(OCC)cc2)nc1
inactive
Cc1ccc(OCC(=O)NC(C)c2ccccc2)c([N+](=O)[O-])n1 (centres undefined)
inactive
Cc1cccc(C(=O)N2CCCN(C(=O)c3cccc(C)c3)CC2)c1
inactive
CCCCCc1ccc(-c2ccc(C(=O)O)cc2)nc1
active
NS(=O)(=O)c1cccc(NC(=O)CN2CCCc3ccccc32)c1
inactive
O=C(NC1CCCC1)c1ccc(Br)s1
inactive
CCOc1cc(NC(=S)NCCCN(C)C)c(OCC)cc1NC(=O)C1CC1
inactive
O=[N+]([O-])c1cc(Br)c(O)c(/C=N/Nc2nc3ccccc3s2)c1
inactive
Cc1ccc2cc3cc(C(=O)N4CCCCCC4)oc3nc2c1
active
Cc1ccc(NC(=S)NC(=O)c2ccc(-c3ccccc3)cc2)c(C)c1
inactive
CN(NC(=O)c1ccccc1)c1nc2ccccc2nc1C(F)(F)F
inactive
Cc1ccc(NC(=S)Nc2ncccc2C)c(C)c1
active
Cc1ccc(NC(=S)NCc2ccccc2Cl)c(C)c1
inactive
COCCSc1nnc(NC(=O)c2cc(OC)c(OC)cc2[N+](=O)[O-])s1
inactive
Fc1ccc2nc(Nc3nc4c(s3)CCCC4)sc2c1
inactive
Cc1cc(Cl)ccc1OCCCC(=O)NCc1ccccn1
inactive
Fc1ccccc1/C=C1\CCCC2=C1Nc1ncnn1C2c1ccccc1F (centres undefined)
active
CCCCCCCCC(=O)NCCOc1ccccc1
inactive
O=C(N/N=C/C=C/c1ccco1)c1cccs1
inactive
Cn1c(=N)n(CC(O)c2cccs2)c2ccccc21 (centres undefined)
inactive
CSc1nc(N(C)NC(=O)c2cccc(C)c2)c2ccccc2n1
active
